Reference source: patent US20240301068A1

target: recombinant human PD-L1 (Sino Biological Inc.) (human, UniProt Q9NZQ7 19-239); assay: ELISA, human PD-L1 coated
Sequence (Q9NZQ7 19-239 limits assumed): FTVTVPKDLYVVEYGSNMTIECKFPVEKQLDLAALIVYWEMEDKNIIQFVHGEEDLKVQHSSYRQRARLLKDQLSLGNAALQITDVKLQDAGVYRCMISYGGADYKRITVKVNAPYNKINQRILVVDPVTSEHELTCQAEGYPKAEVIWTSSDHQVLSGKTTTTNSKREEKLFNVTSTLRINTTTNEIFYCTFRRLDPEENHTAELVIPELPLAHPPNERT
I'd appreciate it if you could supply EC50 values for the items below.
All answers are understood in nM, so give the number only.

[Q] Find the recorded EC50 belonging to humanized anti-human PD-L1 monoclonal antibody VLS15-VHS12 P1 (antibody, human IgG1, kappa, V domains shown) VH: EVQLVQSGAEVKKPGSSVKVSCKASGFNIEDTYIHWVRQAPGQGLEWMGRIDPAQGNTKYDPKFQGRVTITADTSTNTAYMELSSLRSEDTAVYYCGRGLGAWFAYWGQGTLVTVSS VL: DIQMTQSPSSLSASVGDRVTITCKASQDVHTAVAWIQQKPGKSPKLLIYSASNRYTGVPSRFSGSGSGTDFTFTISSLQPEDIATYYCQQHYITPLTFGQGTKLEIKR and report it.
[A] 0.048

[Q] Find the recorded EC50 belonging to chimeric anti-human PD-L1 monoclonal antibody (antibody, human IgG1, kappa, V domains shown, expressed in ExpiCHO cells; also called Chimeric mAb; Chimeric antibody) VH: EVQLQQSGAELVKPGASVKLSCTASGFNIEDTYIHWVMQRPEQGLEWIGRIDPANGNTKYDPKFQGKATITADTSSNTAYLQLSSLTSEDTAVYYCGRGLGAWFAYWGQGTLVTVSA VL: DIVMTQSHKVMSTSVGDRVTITCKASQDVHTAVAWIHQKPGQSPKLLIYSASNRYTGVPDRFTGSGSGTDFTFTISSVQAEDLAVYYCQQHYITPLTFGAGTTLELKR and report it.
[A] 0.066

[Q] Find the recorded EC50 belonging to humanized anti-human PD-L1 monoclonal antibody VLS15-VHS12 (antibody, human IgG1, kappa, V domains shown) VH: EVQLVQSGAEVKKPGSSVKVSCKASGFNIEDTYIHWVRQAPGQGLEWMGRIDPANGNTKYDPKFQGRVTITADTSTNTAYMELSSLRSEDTAVYYCGRGLGAWFAYWGQGTLVTVSS VL: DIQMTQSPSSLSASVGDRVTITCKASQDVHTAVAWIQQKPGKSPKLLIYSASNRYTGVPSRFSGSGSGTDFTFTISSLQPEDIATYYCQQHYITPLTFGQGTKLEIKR and report it.
[A] 0.046

[Q] Find the recorded EC50 belonging to humanized anti-human PD-L1 monoclonal antibody VLS15-VHS12 P2 (antibody, human IgG1, kappa, V domains shown) VH: EVQLVQSGAEVKKPGSSVKVSCKASGFNIEDTYIHWVRQAPGQGLEWMGRIDPASGNTKYDPKFQGRVTITADTSTNTAYMELSSLRSEDTAVYYCGRGLGAWFAYWGQGTLVTVSS VL: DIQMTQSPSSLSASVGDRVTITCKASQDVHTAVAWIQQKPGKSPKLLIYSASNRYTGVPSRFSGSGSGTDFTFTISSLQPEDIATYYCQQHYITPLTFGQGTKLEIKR and report it.
[A] 0.06

[Q] Find the recorded EC50 belonging to humanized anti-human PD-L1 monoclonal antibody VLS10-VHS7 (antibody, human IgG1, kappa, V domains shown) VH: QVQLVQSGAEVKKPGSSVKVSCTASGFNIEDTYIHWVRQAPGQGLEWMGRIDPANGNTKYDPKFQGRVTITADTSTNTAYMELSSLRSEDTAVYYCGRGLGAWFAYWGQGTLVTVSS VL: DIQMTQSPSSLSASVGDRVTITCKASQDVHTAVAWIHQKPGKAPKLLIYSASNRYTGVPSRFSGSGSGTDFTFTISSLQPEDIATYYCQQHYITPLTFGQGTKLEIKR and report it.
[A] 0.067
